# test summary: in vivo
# measurement parameters: male, Gottingen, minipig, stratum corneum (tape strips), topical, 3 μg/mL
recorded endpoint: concentration at 7 days (ng/g)
# output: bare number, implied unit ng/g

Fill in: concentration at 7 days of C=C1/C(=C\C=C2/CCC[C@]3(C)[C@@H]([C@H](C)CCCC(C)(C)O)CC[C@@H]23)C[C@@H](O)C[C@@H]1O [Calcitriol, 1,25-dihydroxyvitamin D3] is ___ 1630

---

# test summary: in vivo
# measurement parameters: female, Gottingen, minipig, stratum corneum (tape strips), topical, 1 μg/mL
recorded endpoint: concentration at 7 days (ng/g)
State the answer as a number, implicitly in ng/g.

I am curious: what concentration at 7 days value has been reported for C=C1/C(=C\C=C2/CCC[C@]3(C)[C@@H]([C@H](C)CCCC(C)(C)O)CC[C@@H]23)C[C@@H](O)C[C@@H]1O [Calcitriol, 1,25-dihydroxyvitamin D3] ? 30
